Test system: AGS cells
Assay: Cell viability assay, AGS
Assay type: cell-based, human
Conditions: Homo sapiens, 72 hours, Cell Counting Kit-8, read-out: G12D IC50
Outcome measure: pIC50
Answers are plain numbers, as −log10 of the molar value.

Take a look at these entries with their results.
Give the measured pIC50 of CO[C@@H](C)c1ncc(N2CCN(C)CC2)cc1-c1c2c3cc(ccc3n1CC(F)(F)F)-c1csc(n1)C[C@H](NC(=O)[C@H](C(C)C)N(C)C(=O)C1(F)CCN(C(=O)[C@H](F)Cl)CC1)C(=O)N1CCC[C@H](N1)C(=O)OCC(C)(C)C2 (atropisomer, axis not shown; (M)) . 7.74

Note, next up: CO[C@@H](C)c1ncc(N2CCN(C)CC2)cc1-c1c2c3cc(ccc3n1CC(F)(F)F)-c1csc(n1)C[C@H](NC(=O)[C@H](C(C)C)N1CCCC3(CCN(C(=O)[C@H](F)Cl)C3)C1=O)C(=O)N1CCC[C@H](N1)C(=O)OCC(C)(C)C2 (some centres unmarked) 7.74

Note, next up: CO[C@@H](C)c1ncccc1-c1c2c3cc(ccc3n1CC(F)(F)F)-c1csc(n1)C[C@H](NC(=O)[C@H](C(C)C)N(C)C(=O)[C@H]1CCN(C(=O)[C@H](F)Cl)C1)C(=O)N1CCC[C@H](N1)C(=O)OCC(C)(C)C2 (atropisomer, axis not shown; (M)) 6.06

Note, next up: C#CC1CCN(C(=O)N(C)[C@H](C(=O)N[C@H]2Cc3cc(O)cc(c3)-c3ccc4c(c3)c(c(-c3cccnc3[C@H](C)OC)n4CC)CC(C)(C)COC(=O)[C@@H]3CCCN(N3)C2=O)C(C)C)CC1 (atropisomer, axis not shown; (M)) 5.91

Count: 4. Required value per item: pIC50.
1. CCn1c(-c2cccnc2[C@H](C)OC)c2c3cc(ccc31)-c1cc(O)cc(c1)C[C@H](NC(=O)[C@H](C(C)C)N(C)C(=O)[C@H]1CCN(C(=O)C(C)=O)C1)C(=O)N1CCC[C@H](N1)C(=O)OCC(C)(C)C2 (atropisomer, axis not shown; (M))
2. CC(C)[C@@H](C(=O)N[C@H]1Cc2cc(O)cc(c2)-c2ccc3c(C(C)(C)C#N)cn(c3c2)CC(C)(C)COC(=O)[C@@H]2CCCN(N2)C1=O)N1CCCC2(CCN(C(=O)CCl)C2)C1=O (some centres unmarked) [RM351, reference compound]
3. CCn1c(-c2cc(N3CCN(C)CC3)cnc2[C@H](C)OC)c2c3cc(ccc31)-c1csc(n1)C[C@H](NC(=O)[C@H](C(C)C)N1CCCC3(CCN(C(=O)[C@H](F)Cl)C3)C1=O)C(=O)N1CCC[C@H](N1)C(=O)OCC(C)(C)C2 (some centres unmarked)
4. CCn1c(-c2cccnc2[C@H](C)OC)c2c3cc(ccc31)-c1cc(O)cc(c1)C[C@H](NC(=O)[C@H](C(C)C)N(C)C(=O)[C@H]1CCN(C(=O)C(F)Cl)C1)C(=O)N1CCC[C@H](N1)C(=O)OCC(C)(C)C2 (some centres unmarked)

6.65
5.68
7.72
7.08

----------
Would you kindly list Remaining at 6 hr in GSH (%) for each of these compounds?
Assay: GSH reaction rates (inherent GSH reactivity)
Type: in vitro ADME
Settings: 1 μM compound, 5 mM GSH, 37° C., pH 7.4, 6 hr
Numbers only, in %.

Give the measured Remaining at 6 hr in GSH (%) of CO[C@@H](C)c1ncc(N2CCN(C)CC2)cc1-c1c2c3cc(ccc3n1CC(F)(F)F)-c1csc(n1)C[C@H](NC(=O)[C@H](C(C)C)N1CCCC3(CCN(C(=O)[C@H](F)Cl)C3)C1=O)C(=O)N1CCC[C@H](N1)C(=O)OCC(C)(C)C2 (stereo partly shown) . 85

Note, next up: `CO[C@@H](C)c1ncc(N2CCN(C)CC2)cc1-c1c2c3cc(ccc3n1CC(F)(F)F)-c1csc(n1)C[C@H](NC(=O)[C@H](C(C)C)N1CC[C@]3(CCN(C(=O)[C@H](F)Cl)C3)C1=O)C(=O)N1CCC[C@H](N1)C(=O)OCC(C)(C)C2` 95

Note, next up: CO[C@@H](C)c1ncc(N2CCOCC2)cc1-c1c2c3cc(ccc3n1CC(F)(F)F)-c1csc(n1)C[C@H](NC(=O)[C@H](C(C)C)N(C)C(=O)[C@H]1CCN(C(=O)[C@H](F)Cl)C1)C(=O)N1CCC[C@H](N1)C(=O)OCC(C)(C)C2 (atropisomer, axis not shown; (M)) 100

Now look at this one.
Give the measured Remaining at 6 hr in GSH (%) of CO[C@@H](C)c1ncc(N2CCN(C)CC2)cc1-c1c2c3cc(ccc3n1CC(F)(F)F)-c1csc(n1)C[C@H](NC(=O)[C@H](C(C)C)N(C)C(=O)[C@H]1CCN(C(=O)[C@H](F)Cl)C1)C(=O)N1CCC[C@H](N1)C(=O)OCC(C)(C)C2 (atropisomer, axis not shown; (M)) . 88

----------
Tested on: AGS cells
Test: Cell viability assay, AGS
Type: cell-based, human
Settings: Homo sapiens, 72 hours, Cell Counting Kit-8, read-out: G12D IC50
Would you kindly list pIC50 for each of these compounds?
Give bare numbers, as −log10 of the molar value.

Give the measured pIC50 of C#CC1(F)CCN(C(=O)N(C)[C@H](C(=O)N[C@H]2Cc3cc(O)cc(c3)-c3ccc4c(c3)c(c(-c3cccnc3[C@H](C)OC)n4CC)CC(C)(C)COC(=O)[C@@H]3CCCN(N3)C2=O)C(C)C)CC1 (atropisomer, axis not shown; (M)) . 5.93

Note, next up: C#CC1CN(C(=O)N(C)[C@H](C(=O)N[C@H]2Cc3cc(O)cc(c3)-c3ccc4c(c3)c(c(-c3cccnc3[C@H](C)OC)n4CC)CC(C)(C)COC(=O)[C@@H]3CCCN(N3)C2=O)C(C)C)C1 (atropisomer, axis not shown; (M)) 5.86

Note, next up: CCn1c(-c2cc(N3CCN(C)CC3)cnc2[C@H](C)OC)c2c3cc(ccc31)-c1cc(O)cc(c1)C[C@H](NC(=O)[C@H](C(C)C)N(C)C(=O)[C@H]1CCN(C(=O)[C@H](F)Cl)C1)C(=O)N1CCC[C@H](N1)C(=O)OCC(C)(C)C2 (atropisomer, axis not shown; (M)) 7.80

Now look at this one.
Give the measured pIC50 of CCn1c(-c2cccnc2[C@H](C)OC)c2c3cc(ccc31)-c1csc(n1)C[C@H](NC(=O)[C@H](C(C)C)N(C)C(=O)[C@H]1CCN(C(=O)[C@H](F)Cl)C1)C(=O)N1CCC[C@H](N1)C(=O)OCC(C)(C)C2 (atropisomer, axis not shown; (M)) . 5.95

----------
Would you kindly list pIC50 for each of these molecules?
Biological target: KRAS G12C-BRAF complex (Homo sapiens (Human), UniProt P01116+P62937, G12C)
Sequence (P01116-2 other isoform, or with tags, fused parts or gaps G12C): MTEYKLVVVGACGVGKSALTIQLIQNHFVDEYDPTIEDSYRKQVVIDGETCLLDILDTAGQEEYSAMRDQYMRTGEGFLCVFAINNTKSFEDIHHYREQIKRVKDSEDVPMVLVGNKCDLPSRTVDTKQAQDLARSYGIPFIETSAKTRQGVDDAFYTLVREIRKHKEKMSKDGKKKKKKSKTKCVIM
Sequence (P62937 whole entry): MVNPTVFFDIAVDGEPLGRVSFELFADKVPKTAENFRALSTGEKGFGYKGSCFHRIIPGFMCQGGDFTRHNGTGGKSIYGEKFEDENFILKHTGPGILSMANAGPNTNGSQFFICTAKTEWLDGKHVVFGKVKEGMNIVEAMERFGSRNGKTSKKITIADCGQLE
Experiment: KRAS-BRAF with CYPA (50 nM) interaction assay (TR-FRET), G12C
Assay type: binding
Details: GMPPNP loaded 6His-KRAS, GST-BRAF RBD
Numbers only, as −log10 of the molar value.

Count: 2. Required value per item: pIC50.
1. CCn1c(-c2cc(N3CCN(CC(F)(F)F)CC3)cnc2[C@H](C)OC)c2c3cc(ccc31)-c1csc(n1)C[C@H](NC(=O)[C@H](C(C)C)N(C)C(=O)[C@H]1CCN(C(=O)[C@H](F)Cl)C1)C(=O)N1CCC[C@H](N1)C(=O)OCC(C)(C)C2 (atropisomer, axis not shown; (M))
2. CCn1c(-c2cccnc2[C@H](C)OC)c2c3cc(ccc31)-c1cc(O)cc(c1)C[C@H](NC(=O)[C@H](C(C)C)N(C)C(=O)[C@H]1CCN(C(=O)C(F)Cl)C1)C(=O)N1CCC[C@H](N1)C(=O)OCC(C)(C)C2 (some centres unmarked)

[7.44, 8.22]
